- Test system: 786-O (renal adenocarcinoma) cell line
- Test: CellTiter-Glo luminescent cell viability assay, 786-O
- Format: cell-based, human
- Condition details: Homo sapiens, 786-0; 786-O cell line; 72 h incubation; CellTiter-Glo; read-out: EC50, growth inhibition of 786-O
In this section we review reported EC50 values for a set of molecules.
Measured parameter: EC50

Molecule: CN1CCN(C2CCCN(c3c(C#N)c(NCc4ccc(Cl)cc4)nc4ccccc34)C2)CC1 (stereo not drawn) [Compound 3168CN]
Value: 0.5 to 5 µM
//
Molecule: CC(C)(C)NC1CCN(c2c(C#N)c(NCc3ccc(C(F)(F)F)cc3)nc3ccccc23)CC1 [Compound 3292CN]
Value: 0.5 to 5 µM
//
Molecule: Cc1ccc(Nc2nc3ccccc3c(N3CCC(NC(C)(C)C)CC3)c2C#N)cc1Nc1nccc(C(F)(F)F)n1 [Compound 538CN]
Value: 5 to 10 µM

====

- Test system: Huh7 (hepatocellular carcinoma) cell line
- Test: CellTiter-Glo luminescent cell viability assay, Huh7
- Format: cell-based, human
- Condition details: Homo sapiens, Huh-7; Huh7, compound at 4 μM, 72 h
Please respond with Condition met when measured viability at 4 µM is strictly beneath 80%, and with Condition not met in all other cases.

Compound: Cc1cc(Nc2nc3ccccc3c(N3CCC(NC(C)(C)C)CC3)c2C#N)ccc1Nc1ccnc(-c2cccnc2)n1 [Compound 522CN]
Label class: Condition met
--
Compound: N#Cc1c(NCc2ccc(Cl)cc2)nc2ccccc2c1N1CCCC(Oc2cccc(F)c2)C1 (stereo not drawn) [Compound 3240CN]
Label class: Condition not met
--
Compound: CC(C)(C)OC(=O)NC1CCCN(c2c(C#N)c(NCc3ccc(Cl)cc3)nc3ccccc23)C1 (stereo not drawn) [Compound 154CN]
Label class: Condition not met
--
Compound: N#Cc1c(NCc2ccc(Cl)cc2)nc2ccccc2c1N1CCC(N2CCCC2)C1 (stereo not drawn) [Compound 148CN]
Label class: Condition not met
--
Compound: CC(C)(C)NC1CCN(c2c(C#N)c(NCc3ccccn3)nc3ccccc23)CC1 [Compound 3308CN]
Label class: Condition not met
--
Compound: COc1cc(C)nc(Nc2ccc(Nc3nc4ccccc4c(N4CCC(NC(C)(C)C)CC4)c3C#N)cc2C)n1 [Compound 510CN]
Label class: Condition met
--
Compound: COc1ccc(OC2CCN(c3c(C#N)c(NCc4ccc(Cl)cc4)nc4ccccc34)C2)cc1 (stereo not drawn) [Compound 3334CN]
Label class: Condition not met
--
Compound: Cc1cc2c(C)nc(Nc3ccc(Nc4nc5ccccc5c(N5CCC(NC(C)(C)C)CC5)c4C#N)cc3C)nc2o1 [Compound 512CN]
Label class: Condition met
--
Compound: Cc1ccc(OC2CCN(c3c(C#N)c(NCc4ccc(Cl)cc4)nc4ccccc34)CC2)cc1 [Compound 2944CN]
Label class: Condition not met
--
Compound: N#Cc1c(NCc2ccc(Cl)cc2)nc2ccccc2c1N1CCC(N)C1 (stereo not drawn) [Compound 3190CN]
Label class: Condition not met
--
Compound: Cc1ccc(Nc2nc3ccccc3c(N3CCC(NC(C)(C)C)CC3)c2C#N)cc1 [Compound 3248CN]
Label class: Condition not met
--
Compound: N#Cc1c(NCc2ccc(Cl)cc2)nc2ccccc2c1N1CCC(Oc2cccc(F)c2)C1 (stereo not drawn) [Compound 3340CN]
Label class: Condition not met
--
Compound: N#Cc1c(NCc2ccc(Cl)cc2)nc2ccccc2c1N1CCC(N2CCOCC2)C1 (stereo not drawn) [Compound 150CN]
Label class: Condition not met
--
Compound: CN1CCC(NC2CCCN(c3c(C#N)c(NCc4ccc(Cl)cc4)nc4ccccc34)C2)CC1 (stereo not drawn) [Compound 3162CN]
Label class: Condition met
--
Compound: CC(C)(C)NC1CCN(c2c(C#N)c(Nc3ccc(F)cc3)nc3ccccc23)CC1 [Compound 3260CN]
Label class: Condition met
--
Compound: N#Cc1c(NCc2ccc(Cl)cc2)nc2ccccc2c1N1CCCC(Oc2ccccc2)C1 (stereo not drawn) [Compound 3206CN]
Label class: Condition not met
--
Compound: CCN(CC)C1CCN(c2c(C#N)c(NCc3ccc(Cl)cc3)nc3ccccc23)CC1 [Compound 184CN]
Label class: Condition met

====

- Test system: A375 (malignant melanoma) cell line
- Test: CellTiter-Glo luminescent cell viability assay, A375
- Assay type: cell-based, human
- Condition details: Homo sapiens, A-375; A375 cell line; 72 h incubation; CellTiter-Glo; read-out: EC50, growth inhibition of A375
pEC50: −log10 of the molar value. Where a name gives a salt, the structure may show the parent alone.

Compound: OC1CCN(c2cc(NCc3ccc(Cl)cc3)nc3ccccc23)CC1 [Compound 2916, hydrochloride]
pEC50: 5.00 to 5.30
--
Compound: CC(C)(C)NC1CCN(c2c(C#N)c(NCc3ccc(C(F)(F)F)cc3)nc3ccccc23)CC1 [Compound 3292CN]
pEC50: 5.30 to 6.30
--
Compound: CC(C)(C)NC1CCN(c2c(F)c(NCc3ccc(Cl)cc3)nc3ccccc23)CC1 [Compound 348, Hydrochloride Salt]
pEC50: 5.30 to 6.30
--
Compound: Cc1cc(Nc2nc3ccccc3c(N3CCC(NC(C)(C)C)CC3)c2C#N)ccc1F [Compound 3250CN]
pEC50: 5.30 to 6.30
--
Compound: Cc1ccc2nc(NCc3ccc(Cl)cc3)c(C#N)c(N3CCC(NC(C)(C)C)CC3)c2c1 [Compound 418CN]
pEC50: 5.30 to 6.30
--
Compound: CC(C)(C)NC1CCN(c2c(F)c(NCc3ccc(F)cc3)nc3ccccc23)CC1 [Compound 240F]
pEC50: 5.00 to 5.30
--
Compound: Cc1c(F)ccc2c(N3CCC(NC(C)(C)C)CC3)cc(NCc3ccc(Cl)cc3)nc12
pEC50: 5.30 to 6.30
--
Compound: CN(Cc1ccc(Cl)cc1)c1cc(N2CCC(NC(C)(C)C)CC2)c2ccccc2n1 [Compound 212, Hydrochloride Salt]
pEC50: 5.30 to 6.30
--
Compound: COc1ccc(CNc2nc3ccccc3c(N3CCC(NC(C)(C)C)CC3)c2C#N)cc1 [Compound 3290CN]
pEC50: 5.30 to 6.30
--
Compound: Cc1cc(F)cc2c(N3CCC(NC(C)(C)C)CC3)cc(NCc3ccc(Cl)cc3)nc12
pEC50: 5.30 to 6.30
--
Compound: CNC1CCN(c2c(C#N)c(NCc3ccc(Cl)cc3)nc3ccccc23)CC1 [Compound 3172CN]
pEC50: 5.30 to 6.30
--
Compound: Cc1cccc2c(N3CCC(NC(C)(C)C)CC3)c(C#N)c(NCc3ccc(Cl)cc3)nc12 [Compound 414CN]
pEC50: 5.30 to 6.30

====

In this section we review reported viability at 4 µM values for a set of compounds.
- System: HepG2 (hepatocellular carcinoma) cell line
- Test: CellTiter-Glo luminescent cell viability assay, HepG2
- Format: cell-based, human
- Condition details: Homo sapiens, HepG2; HepG, compound at 4 μM, 72 h

Compound: N#Cc1c(NCc2ccc(Cl)cc2)nc2ccccc2c1N1CCC(N2CCOCC2)CC1 [Compound 202CN]
viability at 4 µM: 80.2%

Compound: CC(C)(C)NC1CCN(c2c(C#N)c(NCc3ccccn3)nc3ccccc23)CC1 [Compound 3308CN]
viability at 4 µM: 92.6%

Compound: CC(C)(C)NC1CCN(c2c(C#N)c(Nc3ccccc3)nc3ccccc23)CC1 [Compound 3246CN]
viability at 4 µM: 53.2%

Compound: N#Cc1c(NCc2ccc(Cl)cc2)nc2ccccc2c1N1CCC(N)C1 (stereo not drawn) [Compound 3190CN]
viability at 4 µM: 95.5%

Compound: CNC1CCCN(c2c(C#N)c(NCc3ccc(Cl)cc3)nc3ccccc23)C1 (stereo not drawn) [Compound 3158CN]
viability at 4 µM: 84.6%

Compound: COc1ccc(OC2CCCN(c3c(C#N)c(NCc4ccc(Cl)cc4)nc4ccccc34)C2)cc1 (stereo not drawn) [Compound 3232CN]
viability at 4 µM: 79.9%

Compound: CC(C)(C)NC1CCN(c2c(F)c(NCc3ccc(F)cc3)nc3ccccc23)CC1 [Compound 240F]
viability at 4 µM: 46.1%

Compound: Cc1c(Nc2cccc(Nc3nccc(C(F)(F)F)n3)c2)nc2ccccc2c1N1CCC(NC(C)(C)C)CC1 [Compound 540Me]
viability at 4 µM: 38.3%

Compound: Cc1ccc(OC2CCN(c3c(C#N)c(NCc4ccc(Cl)cc4)nc4ccccc34)C2)cc1 (stereo not drawn) [Compound 3332CN]
viability at 4 µM: 65.6%

Compound: Cc1cc2c(C)nc(Nc3ccc(Nc4nc5ccccc5c(N5CCC(NC(C)(C)C)CC5)c4C#N)cc3C)nc2o1 [Compound 512CN]
viability at 4 µM: 0.2%

Compound: CN(C)C1CCN(c2c(C#N)c(NCc3ccc(Cl)cc3)nc3ccccc23)C1 (stereo not drawn) [Compound 3202CN]
viability at 4 µM: 104%

Compound: CN1CCN(C2CCN(c3c(C#N)c(NCc4ccc(Cl)cc4)nc4ccccc34)C2)CC1 (stereo not drawn) [Compound 3200CN]
viability at 4 µM: 71.8%

Compound: CC(C)CN(Cc1ccc(Cl)cc1)c1cc(N2CCC(NC(C)(C)C)CC2)c2ccccc2n1 [Compound 220]
viability at 4 µM: 79.6%

Compound: N#Cc1c(NCc2ccc(Cl)cc2)nc2ccccc2c1N1CCCC(N2CCOCC2)C1 (stereo not drawn) [Compound 178CN]
viability at 4 µM: 101%

Compound: Cc1cc(Nc2nc3ccccc3c(N3CCC(NC(C)(C)C)CC3)c2C#N)ccc1Nc1nccc(-c2cccnc2)n1 [Compound 3131CN]
viability at 4 µM: 80.6%

Compound: CC(C)(C)NC1CCN(c2c(C#N)c(NCc3ccc4c(c3)OCO4)nc3ccccc23)CC1 [Compound 3300CN]
viability at 4 µM: 62.7%

Compound: CC(C)(C)NC1CCN(c2c(C#N)c(Nc3ccc(F)cc3)nc3ccccc23)CC1 [Compound 3260CN]
viability at 4 µM: 49.1%

Compound: Cc1cccc2c(N3CCC(NC(C)(C)C)CC3)c(C#N)c(NCc3ccc(Cl)cc3)nc12 [Compound 414CN]
viability at 4 µM: 9%

Compound: CC(C)(C)OC(=O)NC1CCN(c2c(C#N)c(NCc3ccc(Cl)cc3)nc3ccccc23)CC1 [Compound 182CN]
viability at 4 µM: 91.6%

Compound: CC(C)(C)NC1CCN(c2c(C#N)c(Nc3ccc(OC(F)(F)F)cc3)nc3ccccc23)CC1 [Compound 3266CN]
viability at 4 µM: 60.6%

Compound: CCN(CC)C1CCN(c2c(C#N)c(NCc3ccc(Cl)cc3)nc3ccccc23)CC1 [Compound 184CN]
viability at 4 µM: 72.4%

Compound: COc1cc(C)nc(Nc2ccc(Nc3nc4ccccc4c(N4CCC(NC(C)(C)C)CC4)c3C#N)cc2C)n1 [Compound 510CN]
viability at 4 µM: 54.6%

Compound: N#Cc1c(NCc2ccc(Cl)cc2)nc2ccccc2c1N1CCCC(N)C1 (stereo not drawn) [Compound 3156CN]
viability at 4 µM: 32.6%

Compound: COc1ccc(CNc2nc3ccccc3c(N3CCC(NC(C)(C)C)CC3)c2C#N)cc1 [Compound 3290CN]
viability at 4 µM: 75.5%
